target: Melanin-concentrating hormone receptor 1 (Homo sapiens, UniProt Q99705); settings: HEK293
Sequence (Q99705 whole entry): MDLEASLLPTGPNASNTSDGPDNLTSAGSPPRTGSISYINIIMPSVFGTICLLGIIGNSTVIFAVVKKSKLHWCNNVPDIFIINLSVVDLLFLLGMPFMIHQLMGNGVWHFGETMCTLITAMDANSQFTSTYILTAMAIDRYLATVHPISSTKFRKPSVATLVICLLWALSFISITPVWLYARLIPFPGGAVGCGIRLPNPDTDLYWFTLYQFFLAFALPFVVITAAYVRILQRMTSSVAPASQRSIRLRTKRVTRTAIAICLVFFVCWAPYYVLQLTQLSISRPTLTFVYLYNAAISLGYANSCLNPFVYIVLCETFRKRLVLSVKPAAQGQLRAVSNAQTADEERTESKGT
Description: Antagonist activity at human MCH1 receptor expressed in HEK cells after 45 mins by [35S]GTP-gamma-S binding assay
Use yes when the recorded pKb is no lower than 6; use no when it is lower.

molecular_string=Cc1ccc(CN2CCC(CCN(Cc3ccc(-c4ccc(F)cc4)cc3)C(=O)NC(C)C)CC2)cc1 target="Melanin-concentrating hormone receptor 1 (Homo sapiens, UniProt Q99705)" discrete_label=yes
molecular_string=COc1ccc(-c2ccc(CNC(=O)NC3CCN(Cc4ccc(C)cc4)CC3)cc2)cc1 target="Melanin-concentrating hormone receptor 1 (Homo sapiens, UniProt Q99705)" discrete_label=yes
molecular_string=COc1ccc(-c2ccc(CN(CCC3CCN(Cc4ccc(C)cc4)CC3)C(=O)NC(C)(C)COC(C)=O)cc2)cc1 target="Melanin-concentrating hormone receptor 1 (Homo sapiens, UniProt Q99705)" discrete_label=yes

Q) Threshold query (pKb >= 6) on Cc1ccc(CN2CCC(CCN(Cc3ccc(-c4cccc(C#N)c4)cc3)C(=O)NC(C)(C)CO)CC2)cc1
A) yes

Q) Answer whether pKb of COc1ccc(-c2ccc(CN(CCC3CCN(Cc4ccc(C)cc4)CC3)C(=O)NC(C)C)cc2)cc1 is greater than or equal to 6.
A) yes

Q) Check if pKb >= 6 (inclusive). Item: CCC(CO)(CO)NC(=O)N(CCC1CCN(Cc2ccc(C)cc2)CC1)Cc1ccc(-c2ccccc2)cc1
A) yes

Q) Hi team, for COc1ccccc1-c1ccc(CN(CC(=O)C(C)(C)O)C(=O)NC2CCN(Cc3ccc(C)cc3)CC2)cc1 , is the recorded pKb at or above 6?
A) no

Q) I'd appreciate it if you could say whether COc1ccccc1-c1ccc(CN(CCC2CCN(Cc3ccc(C)cc3)CC2)C(=O)NC(C)C)cc1 has pKb at least equal to 6.
A) no

====

biological target: Melanin-concentrating hormone receptor 1 (Homo sapiens, UniProt Q99705); conditions: HEK293
Rule: pKb under 6 gives not satisfied, otherwise satisfied.

Example results:
molecular_string=CC(=O)OCC(C)(C)NC(=O)N(CCC1CCN(Cc2ccc(C)cc2)CC1)Cc1ccc(-c2ccccc2)cc1 discrete_label=satisfied
molecular_string=Cc1ccc(CN2CCC(CCN(Cc3ccc(-c4ccccc4)cc3)C(=O)NC(C)(C)CO)CC2)cc1 discrete_label=satisfied
molecular_string=Cc1ccc(CN2CCC(NC(=O)N(CC(=O)C(C)(C)O)Cc3ccc(-c4cccc(C#N)c4)cc3)CC2)cc1 discrete_label="not satisfied"
molecular_string=Cc1ccc(CN2CCC(CCN(Cc3ccc(-c4ccc(F)cc4)cc3)C(=O)NC(C)(C)CO)CC2)cc1 discrete_label=satisfied
molecular_string=CCC(CO)(CO)NC(=O)N(CCC1CCN(Cc2ccc(C)cc2)CC1)Cc1ccc(-c2cccc(C#N)c2)cc1 discrete_label="not satisfied"

Q) Quick check, pKb >= 6? CCC(COC(C)=O)(COC(C)=O)NC(=O)N(CCC1CCN(Cc2ccc(C)cc2)CC1)Cc1ccc(-c2ccccc2)cc1
A) satisfied

Q) Is it the case that CC(=O)OCC(C)(C)NC(=O)N(CCC1CCN(Cc2ccc(C)cc2)CC1)Cc1ccc(-c2ccc(F)cc2)cc1 has pKb reaching or exceeding 6?
A) satisfied

====

target: Melanin-concentrating hormone receptor 1 (Homo sapiens); test: Displacement of [3H]SNAP from human MCH1 receptor expressed in HEK cells; format: cell-based, HEK293; details: read-out: Ki
Kindly apply the following: label 1 if Ki is less than 300 nM, label 0 in every other case.

Illustrative cases are given below, each with its answer.
molecular_string=COc1ccc(-c2ccc(CNC(=O)NC3CCN(Cc4ccc(C)cc4)CC3)cc2)cc1 target="Melanin-concentrating hormone receptor 1 (Homo sapiens)" discrete_label="label 0"
molecular_string=COc1ccc(-c2ccc(CN(CCC3CCN(Cc4ccc(C)cc4)CC3)C(=O)NC(C)(C)CO)cc2)cc1 target="Melanin-concentrating hormone receptor 1 (Homo sapiens)" discrete_label="label 1"
molecular_string=CCC(COC(C)=O)(COC(C)=O)NC(=O)N(CCC1CCN(Cc2ccc(C)cc2)CC1)Cc1ccc(-c2cccc(C#N)c2)cc1 target="Melanin-concentrating hormone receptor 1 (Homo sapiens)" discrete_label="label 0"

Q) Report whether reported Ki is lower than 300 nM (strictly) for CCC(COC(C)=O)(COC(C)=O)NC(=O)N(CCC1CCN(Cc2ccc(C)cc2)CC1)Cc1ccc(-c2ccc(OC)cc2)cc1
A) label 1

Q) Dear reviewer, please state whether Cc1ccc(CN2CCC(CCN(Cc3ccc(-c4cccc(C#N)c4)cc3)C(=O)NC(C)C)CC2)cc1 has Ki strictly beneath 300 nM.
A) label 0

Q) In plain terms, does COc1ccccc1-c1ccc(CN(CCC2CCN(Cc3ccc(C)cc3)CC2)C(=O)NC(C)(C)CO)cc1 come in under 300 nM for Ki?
A) label 1

Q) Is the reported Ki for Cc1ccc(CN2CCC(NC(=O)NCc3ccc(-c4ccccc4)cc3)CC2)cc1 strictly below 300 nM?
A) label 0

Q) For COc1ccccc1-c1ccc(CN(CCC2CCN(Cc3ccc(C)cc3)CC2)C(=O)NC(C)(C)COC(C)=O)cc1 , is the recorded Ki below the cut-off of 300 nM?
A) label 1

Q) Is Ki strictly under 300 nM for the entry COc1ccc(-c2ccc(CN(CCC3CCN(Cc4ccc(C)cc4)CC3)C(=O)NC(C)C)cc2)cc1 ?
A) label 1

Q) Decide: Ki of CCC(CO)(CO)NC(=O)N(CCC1CCN(Cc2ccc(C)cc2)CC1)Cc1ccc(-c2ccc(F)cc2)cc1 strictly below 300 nM?
A) label 1

Q) Quick check: Ki of COc1ccccc1-c1ccc(CN(CC(=O)C(C)(C)O)C(=O)NC2CCN(Cc3ccc(C)cc3)CC2)cc1 under 300 nM?
A) label 0

Q) Decide: Ki of Cc1ccc(CN2CCC(NC(=O)NCc3ccc(-c4ccc(F)cc4)cc3)CC2)cc1 strictly below 300 nM?
A) label 0
